Target: T1, CAPRIN-1 protein expressed on the membrane surface of human cancer cells (human, UniProt Q14444 2-709)
T1 sequence (looked up): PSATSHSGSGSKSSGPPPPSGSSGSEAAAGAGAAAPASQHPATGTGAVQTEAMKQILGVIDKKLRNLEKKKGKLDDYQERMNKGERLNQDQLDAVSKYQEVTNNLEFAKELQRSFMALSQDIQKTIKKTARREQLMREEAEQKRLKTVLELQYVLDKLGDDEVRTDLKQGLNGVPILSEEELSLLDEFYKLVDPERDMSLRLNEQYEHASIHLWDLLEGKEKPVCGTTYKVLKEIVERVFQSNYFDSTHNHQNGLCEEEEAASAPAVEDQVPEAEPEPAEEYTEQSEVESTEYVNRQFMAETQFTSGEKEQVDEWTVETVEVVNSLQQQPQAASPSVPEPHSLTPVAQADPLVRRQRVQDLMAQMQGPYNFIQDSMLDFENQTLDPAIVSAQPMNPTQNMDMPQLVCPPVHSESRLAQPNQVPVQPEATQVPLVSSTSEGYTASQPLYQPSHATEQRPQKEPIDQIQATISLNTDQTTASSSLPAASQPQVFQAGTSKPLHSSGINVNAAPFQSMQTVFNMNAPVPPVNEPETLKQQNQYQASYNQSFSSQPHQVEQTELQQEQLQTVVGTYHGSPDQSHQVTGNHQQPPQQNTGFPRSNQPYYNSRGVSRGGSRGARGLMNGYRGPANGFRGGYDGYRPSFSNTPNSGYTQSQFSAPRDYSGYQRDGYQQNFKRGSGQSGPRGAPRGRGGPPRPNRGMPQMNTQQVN
Assay: cell-based or functional assay
ADCC cytotoxic activity (51Cr release) on NCI-H2452 for assorted binders

binder	assay.value
humanized antibody #7 (antibody, V domains shown) VH: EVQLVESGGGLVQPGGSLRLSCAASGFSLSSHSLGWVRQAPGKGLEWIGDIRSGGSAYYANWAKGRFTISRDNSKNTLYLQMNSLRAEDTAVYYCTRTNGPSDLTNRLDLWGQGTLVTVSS VL: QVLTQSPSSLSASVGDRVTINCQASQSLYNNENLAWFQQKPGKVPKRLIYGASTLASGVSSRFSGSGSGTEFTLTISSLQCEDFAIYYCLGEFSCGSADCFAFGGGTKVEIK	≥ 35%

// next entry
Item under review: humanized antibody #2 (antibody, V domains shown) VH: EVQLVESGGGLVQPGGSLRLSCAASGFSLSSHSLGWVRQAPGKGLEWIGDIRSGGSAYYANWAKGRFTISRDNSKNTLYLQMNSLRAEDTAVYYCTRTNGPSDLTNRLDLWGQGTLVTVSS VL: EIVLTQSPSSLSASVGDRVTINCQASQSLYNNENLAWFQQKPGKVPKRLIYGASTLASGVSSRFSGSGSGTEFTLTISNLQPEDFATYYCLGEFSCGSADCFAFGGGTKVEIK . Reported ADCC cytotoxic activity (51Cr release) on NCI-H2452?
≥ 39%
